molecules and their reported Cocklebur plant response rating
Tested on: cocklebur
Experiment: Test B pre/postemergence cocklebur
Format: in vivo, Xanthium strumarium
Conditions: Rate 125 g/ha, Postemergence; scale of 0 to 10 where 0 is no effect and 10 is complete control

# molecule, tested-on, Cocklebur plant response rating
rows = [
    ("CC(C)N(C(=O)n1oc(=O)n(C2CC2)c1=O)c1ccc(F)cc1F [Compound 299]", "cocklebur", 2),
]

Ask | Give Cocklebur plant response rating for this entry on cocklebur: COCC(C)N(C(=O)n1oc(=O)n(-c2ccccc2C)c1=O)c1ccc(F)cc1 (centres unmarked) [Compound 324]
Reply | 0

Ask | Identify measured Cocklebur plant response rating obtained with cocklebur for CC(C)N(C(=O)n1oc(=O)n(CC(C)(C)C)c1=O)c1ccccc1 [Compound 276] .
Reply | 0

Ask | Provide the reported Cocklebur plant response rating (system: cocklebur) for CCN(C(=O)n1oc(=O)n(N(C)C)c1=O)C1CCCCC1 [Compound 274]
Reply | 0

Ask | Give measured Cocklebur plant response rating for CCc1cccc(CC)c1-n1c(=O)on(C(=O)N(c2ccccc2)C(C)C)c1=O [Compound 305] (cocklebur).
Reply | 0

###

The entries below are paired with their reported B. signalgrass plant response rating.
Test system: surinam grass
Assay: Test B pre/postemergence surinam grass
Assay type: in vivo, Brachiaria decumbens
Details: Postemergence, Rate 250 g/ha; scale 0 to 10, 0 no effect, 10 complete control
Please give only the number in your answer, with no unit.

Here are 4 compounds together with their reported answers.
# input-smiles, B. signalgrass plant response rating
records = [
    ("Cc1cccc(C(C)C)c1-n1c(=O)on(C(=O)N(c2ccccc2)C(C)C)c1=O", 0),
    ("CC(C)C(=O)Cn1c(=O)on(C(=O)N(c2ccc(F)cc2F)C(C)C)c1=O", 1),
    ("CCN(C(=O)n1oc(=O)n(C2CCCCCC2)c1=O)C1CCCCC1", 0),
    ("CC(C)N(C(=O)n1oc(=O)n(C(C)C)c1=O)c1ccc(F)cc1F", 8),
]

Here's the next entry for you.
Ask | Using the record for `CC[Si](C)(C)Cn1c(=O)on(C(=O)N(c2ccc(F)cc2)C(C)C)c1=O` , state its measured B. signalgrass plant response rating.
Reply | 0

###

# Plant response rating, Wild oats annotations
System: wild oat
Assay: Test B pre/postemergence wild oat
Assay type: in vivo, Avena fatua
Conditions: Preemergence, Rate 250 g/ha; scale of 0 to 10 where 0 is no effect and 10 is complete control
Description: […] At the same time, these crop and weed species were also treated with postemergence applications of test chemicals formulated in the same manner. […] Treated plants and controls were maintained in a greenhouse for twelve to sixteen days, after which all species were compared to controls and visually evaluated. […]
Number, no unit, nothing else.

Worked cases, answers included:
# input-smiles, tested-on, Plant response rating, Wild oats
measured = [
    ("Cc1ccccc1-n1c(=O)on(C(=O)N(c2ccccc2)C(C)C)c1=O", "wild oat", 6),
    ("CC(C)N(C(=O)n1oc(=O)n(-c2ccc(Cl)cc2C(F)(F)F)c1=O)c1ccc(F)cc1", "wild oat", 0),
    ("Cc1ccccc1-n1c(=O)on(C(=O)N(Cc2ccccc2)C(C)C)c1=O", "wild oat", 0),
]

Ask | Identify measured Plant response rating, Wild oats corresponding to `CCc1ccccc1-n1c(=O)on(C(=O)N(c2ccc(F)cc2)C(C)C)c1=O`
Reply | 2

###

Readings of Plant response rating, Barnyardgrass for the listed compounds
System: bamyardgrass
Experiment: Test B flood test barnyardgrass
Assay type: in vivo, Echinochloa crus-galli
Conditions: Rate 500 g/ha, headed Pre-emergence (flood test species); scale 0 to 10 (0 no effect, 10 complete control)
Respond with the number and no other words.

See these solved cases before continuing.
# compound, number
data = [
    ("COc1nc(OC)nc(N(C(=O)n2oc(=O)n(-c3c(C)cccc3C)c2=O)C(C)C)n1 [Compound 180]", 0),
    ("CC(C)N(C(=O)n1oc(=O)n(C(C)(C)C)c1=O)c1ccccc1 [Compound 129]", 9),
    ("Cc1nc(C)c(-n2c(=O)on(C(=O)N(c3ccc(Cl)cc3)C(C)C)c2=O)s1 [Compound 196]", 0),
]

Consider the additional compound presented here.
Ask | Return Plant response rating, Barnyardgrass for the following compound: CCN(Cc1ccncc1)C(=O)n1oc(=O)n(C(C)C)c1=O [Compound 189]
Reply | 0

###

Tested on: surinam grass
Assay: Test B pre/postemergence surinam grass
Format: in vivo, Brachiaria decumbens
Details: Postemergence, Rate 250 g/ha; scale 0 to 10, 0 is no effect, 10 is complete control
measured-parameter: Plant response rating, B. signalgrass
Kindly provide the number alone.

Recorded results for 3 compounds are shown here.
# compound, tested-on, Plant response rating, B. signalgrass
measured = [
    ("CC(C)N(C(=O)n1oc(=O)n(C(CF)CF)c1=O)c1ccccc1", "surinam grass", 7),
    ("C=C(C)CCn1c(=O)on(C(=O)N(c2ccccc2)C(C)C)c1=O", "surinam grass", 0),
    ("CC(C)N(C(=O)n1oc(=O)n(CCC(F)(F)F)c1=O)c1ccc(F)cc1", "surinam grass", 2),
]

Ask | Please give measured Plant response rating, B. signalgrass of the following entry: Cc1nc(Cl)sc1C(C)n1c(=O)on(C(=O)N(c2ccccc2)C(C)C)c1=O (stereo not drawn)
Reply | 0

Ask | Identify measured Plant response rating, B. signalgrass corresponding to `CC(C)N(C(=O)n1oc(=O)n(CC2CCC2)c1=O)c1ccc(F)cc1`
Reply | 3

Ask | Query Plant response rating, B. signalgrass for `CC(C)N(C(=O)n1oc(=O)n(C2(C)CC2)c1=O)c1ccc(F)cc1`
Reply | 7

###

Test system: surinam grass
Test: Test B pre/postemergence surinam grass
Type: in vivo, Brachiaria decumbens
Conditions: Preemergence, Rate 125 g/ha; scale of 0 to 10 where 0 is no effect and 10 is complete control
Below, each of the compounds is paired with its reported Plant response rating, B. signalgrass value.
Could you keep your reply to the number by itself?

In the examples that follow, each entry is paired with its recorded Plant response rating, B. signalgrass.
# compound, tested-on, Plant response rating, B. signalgrass
rows = [
    ("CC(C)N(C(=O)n1oc(=O)n(CC2CCC2)c1=O)c1ccc(F)cc1", "surinam grass", 4),
    ("Cc1nc(Cl)sc1C(C)n1c(=O)on(C(=O)N(c2ccc(F)cc2)C(C)C)c1=O (centres unmarked)", "surinam grass", 0),
    ("C=C(C)CCn1c(=O)on(C(=O)N(c2ccccc2)C(C)C)c1=O", "surinam grass", 3),
    ("CC(C)N(C(=O)n1oc(=O)n(C(CF)CF)c1=O)c1ccccc1", "surinam grass", 8),
]

Ask | Tell me its Plant response rating, B. signalgrass given `CCOP(=O)(Cn1c(=O)on(C(=O)N(c2ccc(F)cc2F)C(C)C)c1=O)OCC` as the entry.
Reply | 3

###

Test system: velvetleaf
Test: Test B pre/postemergence velvetleaf
Assay type: in vivo, Abutilon theophrasti
Conditions: Preemergence, Rate 500 g/ha; scale of 0 to 10 where 0 is no effect and 10 is complete control
Parameter Velvetleaf plant response rating: see the listing below.

# compound, tested-on, Velvetleaf plant response rating
records = [
    ("CCOP(=O)(Cn1c(=O)on(C(=O)N(c2ccc(F)cc2)C(C)C)c1=O)OCC [Compound 587]", "velvetleaf", 2),
]

Ask | Consider the compound CC(C)N(C(=O)n1oc(=O)n(CC2=CCCN(C)C2)c1=O)c1ccccc1 [Compound 497] and give its recorded Velvetleaf plant response rating.
Reply | 0

Ask | Hello, please tell me recorded Velvetleaf plant response rating for this one: CC(C)N(C(=O)n1oc(=O)n(CC2=CCCCC2)c1=O)c1ccccc1 [Compound 496]
Reply | 0

Ask | Report Velvetleaf plant response rating for CCc1cccc(CC)c1-n1c(=O)on(C(=O)N(c2ccccc2)C(C)C)c1=O [Compound 305]
Reply | 0

###

System: rape
Experiment: Test B pre/postemergence rape
Format: in vivo, Brassica napus
Details: Preemergence, Rate 62 g/ha; scale 0 to 10 (0 no effect, 10 complete control)
measured-parameter: Rape plant response rating

Consider the worked cases shown below.
# input-smiles, tested-on, Rape plant response rating
records = [
    ("COC(=O)CCCn1c(=O)on(C(=O)N(c2ccc(Cl)cc2)C(C)C)c1=O", "rape", 0),
    ("CCOC(Cn1c(=O)on(C(=O)N(c2ccc(Cl)cc2)C(C)C)c1=O)OCC", "rape", 0),
    ("CC(C)N(C(=O)n1oc(=O)n(C)c1=O)c1ccc(Cl)cc1", "rape", 0),
    ("CCOCn1c(=O)on(C(=O)N(c2ccc(Cl)cc2)C(C)C)c1=O", "rape", 2),
]

Ask | # return Rape plant response rating for `CC(C)N(C(=O)n1oc(=O)n(Cc2ccccc2)c1=O)c1ccccc1` , test system: rape
Reply | 0

Ask | Give Rape plant response rating for this entry on rape: `COc1ccccc1Cn1c(=O)on(C(=O)N(c2ccc(F)cc2)C(C)C)c1=O`
Reply | 0

Ask | Enter Rape plant response rating (test system rape) for `CC(C)N(C(=O)n1oc(=O)n(C(C)(C)C)c1=O)c1ccccc1`
Reply | 0
